# Tested on: antibodies in sera from SARS patients (sera 1a, 1b, 2, 6, 37, 62, London, SARS-yellow, SARS-green)
# Type: binding, human
measure: Binding of serum London to linear peptide (PEPSCAN-ELISA)
// return a plain number; no unit text

Example cases with answers are listed next.
1) QLESKVSGKGQQQQG 0.6
2) GSSRGNSPARMASGG 0.5
3) VTQAFGRRGPEQTQG 0.5

Sample "RSSSRSRGNSRNSTP" — what was its Binding of serum London to linear peptide (PEPSCAN-ELISA)?
0.5

* * *

Below, each entry is listed alongside its reported Binding of serum 6 to linear peptides of protein X2.
# Tested on: antibodies in sera from SARS patients (sera 1a, 1b, 2, 6, 37, 62, London, SARS-yellow, SARS-green)
# Type: binding, human
# Set-up: unit not given here

1. TMTTVYHITVSQIQL 0.5

Sample "KFTTSLSLHKLLQTL" — what was its Binding of serum 6 to linear peptides of protein X2?
0.6

Sample "SLTSLLKTHRMCKYT" — what was its Binding of serum 6 to linear peptides of protein X2?
0.4

* * *

# System: antibodies in sera from SARS patients (sera 1a, 1b, 2, 6, 37, 62, London, SARS-yellow, SARS-green)
# Type: binding, human
Below, each entry is listed alongside its reported Binding of serum 1b to linear peptides of protein X4 of SARS-CoV Urbani.
// return a plain number; no unit text

1. EEVQQELYSPLFLIV 0.6

// below: Binding of serum 1b to linear peptides of protein X4 of SARS-CoV Urbani requested for another sequence
Sample "EVQQELYSPLFLIVA" — what was its Binding of serum 1b to linear peptides of protein X4 of SARS-CoV Urbani?
0.6

* * *

# System: antibodies in sera from SARS patients (sera 1a, 1b, 2, 6, 37, 62, London, SARS-yellow, SARS-green)
# Format: binding, human
API: label(entry) gives yes if the entry's Binding of serum SARS-yellow to looped/cyclic peptides of protein X4 of SARS-CoV Urbani is strictly smaller than 0.7; on equality or larger values it gives no.

Examples with answers:
1. TYQLRARSVSPKLFI no
2. TLIVFTSCELYHYQE no
3. SVSPKLFIRQEEVQQ yes
4. MKIILFLTLIVFTSC yes
5. LFLTLIVFTSCELYH yes
6. AALVFLILCFTIKRK yes

Say whether its Binding of serum SARS-yellow to looped/cyclic peptides of protein X4 of SARS-CoV Urbani is strictly beneath 0.7. Entry: "QLRARSVSPKLFIRQ"
no

* * *

# System: antibodies in sera from SARS patients (sera 1a, 1b, 2, 6, 37, 62, London, SARS-yellow, SARS-green)
# Assay type: binding, human
measure: Binding of serum 2 to looped/cyclic peptides of protein X1 of SARS-CoV Urbani
// return a plain number; no unit text

Example cases with answers are listed next.
1. TDTGIENATFFIFNK 0.5
2. ENATFFIFNKLVKDP 0.5
3. SVTDTIVVTEGDGIS 0.1
4. VVHGYFTEVYYQLES 0.4
5. CIPYNSVTDTIVVTE 0.5

// below: Binding of serum 2 to looped/cyclic peptides of protein X1 of SARS-CoV Urbani requested for another sequence
Sample "DTIVVTEGDGISTPK" — what was its Binding of serum 2 to looped/cyclic peptides of protein X1 of SARS-CoV Urbani?
0.1
